ASSAYED_SYSTEM: human recombinant ATX (Homo sapiens (Human))
PROTOCOL_DESCRIPTION: Autotaxin (ATX) activity Quanta Red assay
TEST_CONTEXT: 15 μM Rac-1-Palmitoyl-glycero-3-phosphocholine, 2 hours room temperature, determined in duplicate
pIC50: −log10 of the molar value.
REPORTED_ENDPOINT: pIC50

# annotated cases, reported pIC50 shown
C[C@@H]1CN(Cc2ccc(N3CC(C(=O)Nc4nnc(CCc5ccc(Cl)cc5)s4)CC3=O)cc2)C[C@H](C)O1 (some centres unmarked) : 8.40
CC1(O)CCN(Cc2ccc(N3C[C@H](NC(=O)c4nnc(CCc5ccc(Cl)cc5)s4)CC3=O)cc2)CC1 : 7.66
O=C(N[C@H]1CC(=O)N(c2ccc(CN3CCCCC3)cc2)C1)c1cc(CCc2ccc(F)cc2)on1 : 7.48

[I] O=C(Nc1cc(CCc2ccccc2)on1)C1CC(=O)N(c2ccc(CN3CCOCC3)cc2)C1 (centres unmarked)
[II] O=C(Nc1nnc(CCC2CCCCO2)s1)[C@H]1CC(=O)N(c2ccc(CN3CCCCC3)cc2)C1 (some centres unmarked)
[III] CN(Cc1ccc(N2C[C@@H](C(=O)Nc3nnc(CCc4ccc(Cl)cc4)s3)CC2=O)cc1)C1COC1
### Prompt # rank_down: sort by pIC50, max first Arrange the labels as the request states and list them.
### Response III, I, II
(III: 9.00, I: 7.77, II: 7.15)

[A] CN(CCC(C)(C)O)Cc1ccc(N2C[C@H](NC(=O)c3nnc(CCc4ccc(Cl)cc4)s3)CC2=O)cc1
[B] COCCN(C)Cc1ccc(N2C[C@@H](C(=O)Nc3nnc(CCc4ccc(Cl)cc4)s3)CC2=O)cc1
[C] O=C(NC1CC(=O)N(c2ccc(CN3CC4CC4C3)cc2)C1)c1nnc(CCc2ccc(Cl)cc2)s1 (centres unmarked)
[D] CC1CCN(Cc2ccc(N3CC(C(=O)Nc4nnc(CCc5ccc(Cl)cc5)s4)CC3=O)cc2)CC1 (centres unmarked)
### Prompt Exam item: list the entries in increasing order of pIC50. Arrange the labels as the request states and list them.
### Response A, C, D, B
(A: 7.24, C: 8.30, D: 8.70, B: 9.00)

[P] O=C(Nc1nnc(CCc2ccc(Cl)cc2)s1)[C@H]1CC(=O)N(c2ccc(CN3CCCCC3)cc2)C1
[Q] O=C(Nc1nnc(CCC2CCOCC2)s1)[C@H]1CC(=O)N(c2ccc(CN3CCCCC3)cc2)C1
### Prompt Please compare: P and Q . Report which one has the smaller pIC50 value. Provide the label of your selected option as the answer.
### Response Q

====

ASSAYED_SYSTEM: human recombinant ATX (Homo sapiens (Human))
PROTOCOL_DESCRIPTION: Autotaxin (ATX) activity Quanta Red assay
Format: biochemical
TEST_CONTEXT: 15 μM Rac-1-Palmitoyl-glycero-3-phosphocholine, 2 hours room temperature, determined in duplicate
pIC50: −log10 of the molar value.
REPORTED_ENDPOINT: pIC50

CN(Cc1ccc(N2C[C@@H](C(=O)Nc3ccc(CCc4ccc(F)cc4)nn3)CC2=O)cc1)C1CCOCC1 [Compound F126] : 8.10

[P] O=C(Nc1nnc(CCc2ccc(Cl)cc2)s1)C1CC(=O)N(c2ccc(CN3CCOCC3)cc2)C1 (stereo not drawn) [Compound F121]
[Q] CC1CN(Cc2ccc(N3CC(C(=O)Nc4nnc(CCc5ccc(Cl)cc5)s4)CC3=O)cc2)C[C@H](C)O1 (stereo in doubt) [Compound F125]
[R] O=C(NC1CC(=O)N(c2ccc(CN3CCCCC3)cc2)C1)c1cc(CCc2ccccc2)on1 (stereo not drawn) [Compound F175]
[S] O=C(NC1CC(=O)N(c2ccc(CN3CCCOCC3)cc2)C1)c1nnc(CCc2ccc(Cl)cc2)s1 (stereo not drawn) [Compound F129]
[T] CC(C)(C)OC(=O)N1CCN(Cc2ccc(N3CC(C(=O)Nc4nnc(CCc5ccc(Cl)cc5)s4)CC3=O)cc2)CC1 (stereo not drawn) [Compound F157]
### Prompt Exam item: list the entries in increasing order of pIC50. Arrange the labels as the request states and list them.
### Response R, T, Q, P, S

[a] O=C(N[C@H]1CC(=O)N(c2ccc(CN3CCCCC3)cc2)C1)c1cc(CCc2ccc(Cl)cc2)on1 [Compound F145]
[b] O=C(Nc1cc(CCc2ccccc2)[nH]n1)C1CC(=O)N(c2ccc(CN3CCOCC3)cc2)C1 (stereo not drawn) [Compound F179]
### Prompt Could you please tell me which of these two has the higher pIC50: a or b ? Provide the label of your selected option as the answer.
### Response a

[1] CCN(Cc1ccc(N2CC(C(=O)Nc3nnc(CCc4ccc(Cl)cc4)s3)CC2=O)cc1)CC(C)C (stereo not drawn) [Compound F112]
[2] O=C(Nc1nnc(CCc2ccc(Cl)cc2)s1)[C@H]1CC(=O)N(c2ccc(CN3CCOCC3)cc2)C1 [Compound F89]
### Prompt Could you please tell me which of these two has the higher pIC50: 1 or 2 ? Provide the label of your selected option as the answer.
### Response 2
(2: 9.00, 1: 8.52)
